Listing: Percent Effect of selected molecules
Biological target: Proteasome subunit beta (Trypanosoma cruzi)
Sequence (whole entry): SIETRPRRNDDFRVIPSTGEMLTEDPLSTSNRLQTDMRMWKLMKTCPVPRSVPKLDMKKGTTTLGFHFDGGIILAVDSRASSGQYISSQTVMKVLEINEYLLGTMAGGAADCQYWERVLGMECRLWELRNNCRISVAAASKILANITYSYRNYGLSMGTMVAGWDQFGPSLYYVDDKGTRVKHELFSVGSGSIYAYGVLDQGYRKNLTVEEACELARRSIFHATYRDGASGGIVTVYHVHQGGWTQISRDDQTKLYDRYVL
Assay: Trypanosoma cruzi proteasome chymotrypsin-like activity (TcProtChymo) assay.
Format: functional
Design: scale not given: in the data most compounds retested in dose-response had high values
Conditions: 9.37 µM
Your answer is read as %, so omit the unit and give the number.

Known results for molecules:
{"columns": ["molecule", "target-system", "Percent Effect / %"],
 "data": [
  ["Cc1nc(N2CCCC2)ncc1-c1cc(O)nc(N2CCCC2)n1", "Proteasome subunit beta (Trypanosoma cruzi)", 7.76],
  ["Cn1cnnc1C1CCN(C(=O)CCCOc2ccccc2F)CC1", "Proteasome subunit beta (Trypanosoma cruzi)", 2.53]
]}

Form field: reported Percent Effect of "O=C(c1ccc(F)c(Cl)c1)N1C[C@@H]2CC[C@H](C1)N(Cc1ccccc1)C2" 11.2

Reported Percent Effect, molecule Cc1nc(CN(C)C2CCN(Cc3ccno3)C2)no1 (centres undefined) : ____ 29.4

Quick one: Percent Effect for "Cc1ccc(CNC(=O)Cn2ncc3c2c(C)nn3C)cc1" ? 10.2

Any idea what its Percent Effect is? The molecule is COc1cc(CN(C)C(=O)NCCC2CCCO2)ccc1SC (centres undefined) 10.1

Quick one: Percent Effect of CN1CCOC(CN(C(=O)Cc2ccccc2F)c2nccs2)C1 (centres undefined) ? -0.539

====

Biological target: Tyrosyl-tRNA synthetase, putative (Trypanosoma cruzi (strain CL Brener)) (UniProt Q4DSP6)
Sequence (whole entry): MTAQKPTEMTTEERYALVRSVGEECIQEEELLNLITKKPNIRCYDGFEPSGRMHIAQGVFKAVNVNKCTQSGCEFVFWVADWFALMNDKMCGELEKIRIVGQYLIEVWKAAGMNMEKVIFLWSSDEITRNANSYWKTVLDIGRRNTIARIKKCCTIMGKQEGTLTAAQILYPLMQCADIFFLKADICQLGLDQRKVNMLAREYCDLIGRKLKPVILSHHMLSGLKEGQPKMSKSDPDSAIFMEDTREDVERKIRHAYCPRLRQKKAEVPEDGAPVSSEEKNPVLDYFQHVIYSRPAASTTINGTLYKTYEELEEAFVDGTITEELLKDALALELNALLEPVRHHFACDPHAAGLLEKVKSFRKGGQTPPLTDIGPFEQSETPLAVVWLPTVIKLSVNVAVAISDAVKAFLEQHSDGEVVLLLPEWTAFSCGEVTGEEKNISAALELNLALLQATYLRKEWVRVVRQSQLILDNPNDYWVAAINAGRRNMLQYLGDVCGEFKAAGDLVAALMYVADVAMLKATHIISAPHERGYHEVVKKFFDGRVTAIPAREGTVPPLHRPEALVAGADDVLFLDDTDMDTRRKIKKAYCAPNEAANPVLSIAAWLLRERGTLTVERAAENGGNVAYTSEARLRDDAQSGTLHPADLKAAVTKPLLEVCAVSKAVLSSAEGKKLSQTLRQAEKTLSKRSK
Assay: Trypanosoma cruzi tyrosyl tRNA synthetase (TcYRS) _High Tyrosine SOP
Format: functional
Set-up: scale not given: in the data most compounds retested in dose-response had high values
Conditions: 30 µM
Entries and their Percent Effect
Give the value in % but do not write % after it.

Check out these entries, answers already filled in.
{"columns": ["compound", "Percent Effect (%)"],
 "data": [
  ["COc1ccccc1NC(=O)NCC(O)(c1ccccc1)C1CC1 (stereo unspecified)", 0],
  ["CCN1C[C@@H]2[C@@H](OC)CCN(S(=O)(=O)c3ccccc3)[C@@H]2C1", 1.06],
  ["O=S1(=O)C[C@@H]2[C@H](C1)N(Cc1cc(Cl)cc(Cl)c1)CCN2CC1CC1", 2.73],
  ["O=C(c1cnoc1)N1CCC[C@]2(C[C@H](Oc3ncccc3F)CO2)C1", 4.17]
]}

Query: Percent Effect; subject: "COc1ccc([C@@H]2CN(C(=O)CCC(F)(F)F)C[C@H]2NC(C)=O)cc1" 6.01

Please report the recorded Percent Effect for CC(=O)NCc1ccc(C(=O)N2CCCC2c2cnn(C)c2)o1 (stereo unspecified) . -0.493

Requested field: Percent Effect. Item: "Cc1ccc(CN(C)C(=O)CN2CC(n3cccn3)C2)o1" -2.13

Which measured Percent Effect value corresponds to O=C(NCc1cccnc1-n1cccn1)C1CC(=O)N(CC2CC2)C1 (stereo unspecified) ? -0.952

Given the compound "CN(C)C(=O)N1C[C@@H]2CCCO[C@@H]2[C@H](N(C)Cc2ccco2)C1" , what is its reported Percent Effect? 4.17

Dear colleague, I am looking for the recorded Percent Effect of the following compound: Cc1cc(C)c2c(c1)C1(CC(=O)Nc3c1cnn3C(C)C)C(=O)N2 (stereo unspecified) 3.17

Name the recorded Percent Effect for CCOCCn1nc(C)cc1C(=O)N1CCN(C(C)C)C(CC)C1 (stereo unspecified) . 3.7

Using the record for CCNC(=O)NC(=O)CSC(C)c1c(F)cccc1F (stereo unspecified) , report its Percent Effect. 0.546

Find the recorded Percent Effect belonging to CCn1ccnc1CN(C)C1CCCN(CCc2ccccc2)C1 (stereo unspecified) and report it. 5.38

Consider the compound shown here: CC(NC(=O)Cn1cccn1)c1ccc2c(c1)OCCCO2 (stereo unspecified) What is its recorded Percent Effect? 8.74

// lookup Percent Effect for "CS(=O)(=O)N1CCc2c(cccc2NC(=O)CC(F)(F)F)C1" 4.25

Item under review: "CC(C)C(=O)NCc1cccc(N2CCCCC2=O)c1" . Reported Percent Effect? 3.81
